molecular target: MASP-2 CCP2-SP (Homo sapiens (Human), UniProt O00187); assay: MASP-2 co-crystallization, X-ray crystallography and structure analysis (H-bonds, van der Waals contacts); conditions: Table A6-2 pharmacophore angle
Sequence (O00187 445-686): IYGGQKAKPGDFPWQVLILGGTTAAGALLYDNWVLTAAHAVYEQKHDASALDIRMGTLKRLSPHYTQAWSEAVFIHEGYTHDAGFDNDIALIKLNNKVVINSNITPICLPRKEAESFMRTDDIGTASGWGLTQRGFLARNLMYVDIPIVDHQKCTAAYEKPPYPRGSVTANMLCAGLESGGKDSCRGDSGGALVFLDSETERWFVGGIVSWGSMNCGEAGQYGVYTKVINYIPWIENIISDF
Sequence (O00187 364-432 partner): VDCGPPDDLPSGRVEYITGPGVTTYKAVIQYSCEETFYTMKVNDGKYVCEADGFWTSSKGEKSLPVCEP
readout.label: a(O1, O2, N2)
Lab note: record just the number, no unit beside it.

C[C@H](NC(=O)[C@H]1C[C@H](c2ccccc2)CN1)C(=O)NCc1ccc2c(N)nccc2c1 :: 140.84
Cc1nc(N)ccc1CNC(=O)C(C)NC(=O)C1CC(c2cccc3ccccc23)CCN1.Cl.Cl (stereo not shown) [1297_6] :: 141.32
C[C@H](NC(=O)[C@H]1C[C@@H](c2ccccc2)CCN1)C(=O)NCc1cc(Cl)ccc1O.Cl [1078_2] :: 146.00

Quick note, a(O1, O2, N2) for C[C@H](NC(=O)[C@H](N)CCc1ccccc1)C(=O)NCc1ccc(N)nc1.Cl.Cl [1007_2] landed at 133.10

Quick note, a(O1, O2, N2) for Cc1nc(N)ccc1CNC(=O)[C@H](C)NC(=O)[C@H]1C[C@@H](c2cccc3ccccc23)CCN1.Cl.Cl [1297_2] landed at 141.45

Quick note, a(O1, O2, N2) for C[C@H](NC(=O)[C@H]1C[C@H](Cc2ccccc2)CN1)C(=O)NCc1cnc2[nH]cc(Cl)c2c1 landed at 143.82

Quick note, a(O1, O2, N2) for Cc1nc(N)ccc1CNC(=O)[C@H](C)NC(=O)[C@H]1C[C@H](Cc2ccccc2Br)CN1.O=C(O)C(F)(F)F.O=C(O)C(F)(F)F [1372_B] landed at 143.19
